Ref: patent US11596639B2

Listing of recorded Ki by entry.
molecular target: Mcl-1 (Homo sapiens (Human)); assay: TR-FRET binding assay, FITC-Bak peptide and MBP-tagged Mcl-1; conditions: read-out: Ki for Inhibition of Mcl-1 by TR-FRET assay
Sequence (Q07820 172-327): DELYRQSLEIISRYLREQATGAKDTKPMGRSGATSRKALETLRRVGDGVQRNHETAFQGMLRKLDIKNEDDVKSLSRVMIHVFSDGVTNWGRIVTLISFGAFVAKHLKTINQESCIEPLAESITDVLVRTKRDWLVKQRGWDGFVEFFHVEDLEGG

// solved cases for Ki follow
{"STRUCTURE_NOTATION": "Cc1cc(OCCCc2c3n(c4c(-c5c(C)cc(OCCN(C)C)cc5C)c(Cl)ccc24)[C@H](C)CN(c2cn(C)c4ccc(C(=O)O)cc24)C3=O)cc(C)c1Cl", "TARGET_OR_SYSTEM": "Mcl-1 (Homo sapiens (Human))", "Ki": "1.6 nM"}
{"STRUCTURE_NOTATION": "Cc1cc(OCCCc2c3n(c4c(-c5c(C)nn(C)c5C)c(Cl)ccc24)[C@H](C)CN(c2cn(C[C@H]4CCCN4C)c4ccc(C(=O)O)cc24)C3=O)cc(C)c1Cl", "TARGET_OR_SYSTEM": "Mcl-1 (Homo sapiens (Human))", "Ki": "< 0.2 nM"}

Prompt: Returns the measured Ki for the input molecule. Input: Cc1cc(N2C[C@@H](C)n3c(c(CCCOc4cc(C)c(Cl)c(C)c4)c4ccc(Cl)c(-c5c(C)n[nH]c5C)c43)C2=O)c2c(c1)cc(C(=O)O)n2Cc1ccccn1
Completion: < 0.2 nM

* * *

biological target: Mcl-1 (Homo sapiens (Human)); test: Fluorescence polarization anisotropy (FPA) competition assay, FITC-Bak or FITC-Bim BH3 peptide; format: binding; settings: read-out: Ki for Inhibition of Mcl-1 by FPA assay
READOUT_KIND: pKi
Field pKi (float): negative decimal logarithm of the concentration in molar.

{"MOLECULE": "Cc1cc(OCCCc2c3n(c4c(-c5c(C)nn(C)c5C)c(Cl)ccc24)[C@H](C)CN(c2cn(C)c4ccc(C(=O)NCc5cccnc5)cc24)C3=O)cc(C)c1Cl [Example 287]", "TARGET_OR_SYSTEM": "Mcl-1 (Homo sapiens (Human))", "pKi": 8.52}
{"MOLECULE": "Cc1cc(OCCCc2c3n(c4c(-c5c(C)nn(C)c5C)c(Cl)ccc24)[C@H](C)CN(c2ccc(C(=O)O)c(Cl)c2)C3=O)cc(C)c1Cl [Example 35]", "TARGET_OR_SYSTEM": "Mcl-1 (Homo sapiens (Human))", "pKi": 8.82}
{"MOLECULE": "Cc1cc(OCCCc2c3n(c4c(-c5c(C)nn(C)c5C)c(Cl)ccc24)[C@H](C)CN(c2cn(C)c4ccc(-c5nnc(C6CCCCC6)o5)cc24)C3=O)cc(C)c1Cl [Example 413]", "TARGET_OR_SYSTEM": "Mcl-1 (Homo sapiens (Human))", "pKi": 8.46}
{"MOLECULE": "Cc1cc(OCCCc2c3n(c4c(-c5c(C)nn(C)c5C)c(Cl)ccc24)[C@H](C)CN(c2cn(C)c4ccc(-c5cccnn5)cc24)C3=O)cc(C)c1Cl [Example 424]", "TARGET_OR_SYSTEM": "Mcl-1 (Homo sapiens (Human))", "pKi": 8.59}
{"MOLECULE": "Cc1cc(OCCCc2c3n(c4c(-c5c(C)nn(C)c5C)c(Cl)ccc24)[C@H](C)CN(c2cn(C)c4ccc(-c5nc[nH]n5)cc24)C3=O)cc(C)c1Cl [Example 420]", "TARGET_OR_SYSTEM": "Mcl-1 (Homo sapiens (Human))", "pKi": 8.70}

Prompt: Returns the measured pKi for the input molecule. Input: Cc1cc(OCCCc2c3n(c4c(-c5c(C)nn(C)c5C)c(Cl)ccc24)[C@H](C)CN(c2ccc4nc(C(=O)O)ccc4c2)C3=O)cc(C)c1Cl [Example 102]
Completion: 8.82

Prompt: Can you handle Cc1cc(OCCCc2c3n(c4c(-c5c(C)nn(C)c5C)c(Cl)ccc24)[C@H](C)CN(c2cccc4cc(C(=O)O)n(CC5COC5)c24)C3=O)cc(C)c1Cl [Example 383] next?
Completion: 8.59

Prompt: Can you handle Cc1cc(N2C[C@@H](C)n3c(c(CCCOc4cc(C)c(Cl)c(C)c4)c4ccc(Cl)c(-c5c(C)nn(C)c5C)c43)C2=O)c2c(c1)cc(C(=O)O)n2CC1CCN(C)C1 (stereo partly shown) [Example 330] next?
Completion: 8.89

Prompt: Can you handle Cc1cc(OCCCc2c3n(c4c(-c5c(C)ncnc5C)c(Cl)ccc24)CCCN(c2ccc(C(=O)O)c4ncccc24)C3=O)cc(C)c1Cl [Example 147] next?
Completion: 8.74

Prompt: Can you handle Cc1cc(OCCCc2c3n(c4c(-c5c(C)nn(C)c5C)c(Cl)ccc24)[C@H](C)CN(c2ccc(OCc4ccccc4)c4c2cc(C(=O)O)n4C)C3=O)cc(C)c1Cl [Example 312] next?
Completion: 8.72

Prompt: Can you handle Cc1cc(OCCCc2c3n(c4c(-c5c(C)nn(C)c5C)c(Cl)ccc24)CCCN(c2cc(C(=O)O)c4c(Cl)cn(C)c4c2)C3=O)cc(C)c1Cl [Example 3] next?
Completion: 8.96

Prompt: Can you handle COCCn1c(C(N)=O)cc2cccc(N3C[C@@H](C)n4c(c(CCCOc5cc(C)c(Cl)c(C)c5)c5ccc(Cl)c(-c6c(C)nn(C)c6C)c54)C3=O)c21 [Example 354] next?
Completion: 8.37

* * *

Target: Mcl-1 (Homo sapiens (Human))
Assay: TR-FRET binding assay, FITC-Bak peptide and MBP-tagged Mcl-1
Conditions: read-out: Ki for Inhibition of Mcl-1 by TR-FRET assay
Procedure: Compounds are diluted in DMSO in a 16-point, semilog serial dilution scheme. […] The plate was mixed and incubated for 3 hours at room temperature. […] TR-FRET signal is plotted and IC50 and Ki values are calculated in the same manner as the fluorescence polarization anisotropy based competition assays.
Rule: Ki below 0.5 nM gives true (1), anything at or above gives false (0).

Prompt: Here's an entry: COc1ccc(N2C[C@@H](C)n3c(c(CCCOc4cc(C)c(Cl)c(C)c4)c4ccc(Cl)c(-c5c(C)nn(C)c5C)c43)C2=O)c2c1cc(C(=O)O)n2Cc1cccc(C)n1 . Is its Ki below 0.5 nM?
Completion: true (1)

Prompt: Can you handle COc1ccc(N2C[C@@H](C)n3c(c(CCCOc4cc(C)c(Cl)c(C)c4)c4ccc(Cl)c(-c5c(C)ncnc5C)c43)C2=O)c2c1cc(C(=O)O)n2Cc1ccc(C)cn1 next?
Completion: true (1)

Prompt: Can you handle Cc1cnc(-n2cnc(-c3ccc4c(c3)c(N3C[C@@H](C)n5c(c(CCCOc6cc(C)c(Cl)c(C)c6)c6ccc(Cl)c(-c7c(C)nn(C)c7C)c65)C3=O)cn4C)n2)nc1 next?
Completion: false (0)

Prompt: Can you handle COCc1nc(-c2ccc3c(c2)c(N2C[C@@H](C)n4c(c(CCCOc5cc(C)c(Cl)c(C)c5)c5ccc(Cl)c(-c6c(C)nn(C)c6C)c54)C2=O)cn3C)nn1C next?
Completion: false (0)

* * *

target: Mcl-1 (Homo sapiens (Human)); test: TR-FRET binding assay, FITC-Bak peptide and MBP-tagged Mcl-1; details: read-out: Ki for Inhibition of Mcl-1 by TR-FRET assay
pKi: −log10 of the molar value.
Listing of recorded pKi by entry.

{"STRUCTURE_NOTATION": "COCCOCc1cc(N2C[C@@H](C)n3c(c(CCCOc4cc(C)c(Cl)c(C)c4)c4ccc(Cl)c(-c5c(C)nn(C)c5C)c43)C2=O)c2c(c1)cc(C(=O)O)n2C", "TARGET_OR_SYSTEM": "Mcl-1 (Homo sapiens (Human))", "pKi": "> 9.70"}
{"STRUCTURE_NOTATION": "Cc1cc(OCCCc2c3n(c4c(-c5c(C)nn(C)c5C)c(Cl)ccc24)[C@H](C)CN(c2cn(Cc4ccc(F)c(F)c4)c4ccc(C(=O)O)cc24)C3=O)cc(C)c1Cl", "TARGET_OR_SYSTEM": "Mcl-1 (Homo sapiens (Human))", "pKi": 8.48}
{"STRUCTURE_NOTATION": "Cc1cc(OCCCc2c3n(c4c(-c5c(C)ncnc5C)c(Cl)ccc24)[C@H](C)CN(c2cn(C)c4ncc(C(=O)O)cc24)C3=O)cc(C)c1Cl", "TARGET_OR_SYSTEM": "Mcl-1 (Homo sapiens (Human))", "pKi": 9.30}

Prompt: Returns the measured pKi for the input compound. Input: Cc1cc(OCCCc2c3n(c4c(-c5c(C)nn(C)c5C)c(Cl)ccc24)[C@H](C)CN(c2cc(OCc4ccccn4)cc4cc(C(=O)O)n(C)c24)C3=O)cc(C)c1Cl
Completion: > 9.70

Prompt: Can you handle Cc1cc(OCCCc2c3n(c4c(-c5c(C)nn(C)c5C)c(Cl)ccc24)[C@H](C)CN(c2cn(CCN4CCCCC4)c4ccc(C(=O)O)cc24)C3=O)cc(C)c1Cl next?
Completion: 8.54

Prompt: Can you handle Cc1cc(OCCCc2c3n(c4c(-c5c(C)nn(C)c5C)c(Cl)ccc24)[C@H](C)CN(c2cn(CCN4CCN(C)CC4)c4ccc(-c5ncn(C)n5)cc24)C3=O)cc(C)c1Cl next?
Completion: > 9.70

Prompt: Can you handle COCCOCCOc1cc(N2C[C@@H](C)n3c(c(CCCOc4cc(C)c(Cl)c(C)c4)c4ccc(Cl)c(-c5c(C)ncnc5C)c43)C2=O)c2c(c1)cc(C(=O)O)n2C next?
Completion: > 9.70

Prompt: Can you handle Cc1cc(N2C[C@@H](C)n3c(c(CCCOc4cc(C)c(Cl)c(C)c4)c4ccc(Cl)c(-c5c(C)nn(C)c5C)c43)C2=O)c2c(c1)cc(C(=O)O)n2CC(=O)N1CCOCC1 next?
Completion: > 9.70

Prompt: Can you handle CC(=O)N1CCN(c2ccnc(Cn3c(C(=O)O)cc4cc(C)cc(N5C[C@@H](C)n6c(c(CCCOc7cc(C)c(Cl)c(C)c7)c7ccc(Cl)c(-c8c(C)nn(C)c8C)c76)C5=O)c43)c2)CC1 next?
Completion: > 9.70

Prompt: Can you handle Cc1cc(OCCCc2c3n(c4c(-c5c(C)nn(C)c5C)c(Cl)ccc24)[C@H](C)CN(c2cn(C[C@H]4CCC[N+]4(C)C)c4ccc(C(=O)O)cc24)C3=O)cc(C)c1Cl next?
Completion: > 9.70
